Reference source: PubChem BioAssay (NCI)

- System: M14 melanoma
- test.protocol: NCI-60 one-dose screen, 48 h (100 = growth as untreated, 0 = no growth, -100 = all killed)
- experimental.conditions: 10 µM unless noted
Compounds without any hit were thinned out: in the full panel of roughly 83,000, 20% have a hit.
Field: growth. Provide a value for each of the compounds that follow.
Only the number, expressed in %, is required.

Using the record for O=C(Cc1ccc(/C=C/C(=O)c2ncc[nH]2)cc1)Nc1ccc(Br)cc1 , report its growth.
31.4

Using the record for Cc1cc(Oc2ccccc2)ccc1Nc1ncnc2ccc(-c3cnc(Cl)c(NS(C)(=O)=O)c3)cc12 , report its growth.
19.5

Using the record for CCN1CCN(Cc2ccc(NC(=O)Nc3nc(-c4cc(OC)c(OC)c(OC)c4)cs3)cc2C(F)(F)F)CC1 , report its growth.
-78.6

Using the record for Cn1c(Nc2ccc(C(F)(F)F)cc2)nc2cc(Oc3ccnc(-c4ncc(C(F)(F)F)[nH]4)c3)ccc21 , report its growth.
15.7

Using the record for CC(C)C1CCC(C)C(C2(C#N)C(N)=NC(N)=C2C#N)C1=O (stereo not drawn) , report its growth.
96.1

Using the record for COC(=O)CNC(=O)[C@@H](OC)[C@@H]1Cc2cc3cc(OC4CC(OC5CC(O)C(O)C(C)O5)C(O)C(C)O4)c(C)c(O)c3c(O)c2C(=O)[C@H]1OC1CC(OC2CC(OC3CC(C)(O)C(O)C(C)O3)C(O)C(C)O2)C(O)C(C)O1 (stereo partly drawn) , report its growth.
-32.1

Using the record for COc1ccc(C(=O)N2c3ccccc3Sc3ccccc32)c(F)c1 , report its growth.
2.04

Using the record for CC[C@@H]1C(=O)N(C)c2cnc(Nc3ccc(C(=O)NC4CCN(C)CC4)cc3OC)nc2N1C1CCCC1 , report its growth.
-25.9

---

- System: UACC-257 melanoma
- test.protocol: NCI-60 one-dose screen, 48 h
- experimental.conditions: 10 µM unless noted
Compounds without any hit were thinned out: in the full panel of roughly 83,000, 20% have a hit. Active and inactive are the calls of the source. How the source made its calls: active means growth percent below 10; inactive means the rest.
Response enum: active, inactive

Per the assay record, what outcome was assigned to C/C(=C(/c1ccc(Cl)cc1)c1ccc(OCCN2CCCCCC2)cc1)c1ccccc1 ?
inactive

Per the assay record, what outcome was assigned to C[C@@H](NC(=O)c1ncnc(N)c1Cl)c1ncc(C(=O)Nc2cc(C(F)(F)F)c(Cl)cn2)s1 ?
active

Per the assay record, what outcome was assigned to CCn1cc(-c2ccnc3[nH]c(-c4cccc(CN(C)C)c4)cc23)c(-c2ccc(NC(=O)N(C)C)cc2)n1 ?
inactive

Per the assay record, what outcome was assigned to NC(=O)c1c(OCc2c(F)cc(Br)cc2F)nsc1NC(=O)NCCCCN1CCCC1 ?
active

Per the assay record, what outcome was assigned to COc1cc2ncnc(Oc3cccc(NC(=O)Nc4cc(C(C)(C)C(F)(F)F)on4)c3)c2cc1OC ?
active

Per the assay record, what outcome was assigned to Cc1cc(O)cc(-c2c(-c3ccnc(-c4cccnc4)c3)cnn2C)c1 ?
inactive

Per the assay record, what outcome was assigned to Cc1ccccc1N1C(c2ccccc2)=NNC12C=CC(=O)C=C2Cl (centres undefined) ?
inactive

Per the assay record, what outcome was assigned to CCCCn1c(C)nc2cc(Nc3nc(N4CCCCC4)nc4nc[nH]c34)ccc21 ?
inactive

Per the assay record, what outcome was assigned to Cn1c(=O)c(F)c(Nc2ccc(I)cc2F)c2c(=O)n(C[C@@H](O)CO)cnc21 ?
active
